System: SK-MEL-5 melanoma
Assay: NCI-60 one-dose screen, 48 h (100 = growth as untreated, 0 = no growth, -100 = all killed)
Conditions: 10 µM unless noted
About 83,000 compounds went through this panel and 20% of them were active in at least one assay; those are over-represented in the sample as a whole.
attribute.measured: growth (%)
API: value field is a number in %; no unit string.

# molecule, growth / %
measured = [
    ("CCOC(=O)C(COS(C)(=O)=O)(COS(C)(=O)=O)C(=O)OCC", 109),
    ("NC(=O)N1CCOCC1", 105),
    ("Cc1c(Cl)cccc1NC(=S)NC(=O)c1ccccc1", 90.1),
]

Ask | What measured growth goes with "CN1C(=O)NC(c2ccc(Cl)cc2)(c2ccc(Cl)cc2)C1=O" ?
Reply | 98.9

Ask | What measured growth goes with "Cn1c(=O)[nH]c2ccccc2c1=O" ?
Reply | 101

Ask | What measured growth goes with "CCOc1ccncc1[N+](=O)[O-]" ?
Reply | 106

Ask | What measured growth goes with "CCOC(=O)c1ccc(NC(C)=O)o1" ?
Reply | 97.9
